The measured values listed here are drawn from ChEMBL document CHEMBL1147772.

Let's go through some recorded pIC50 values for Serine/threonine-protein kinase B-raf (Homo sapiens, UniProt P15056) together.
Lab note: report pIC50 as minus log10 of the concentration in molar units, number only.

Worked cases, answers included:
- mol: "Oc1cc(-c2[nH]cnc2-c2ccncc2)ccc1Cl"
  target_or_system: "Serine/threonine-protein kinase B-raf (Homo sapiens, UniProt P15056)"
  pIC50: 7.48
- mol: "CN(C)CCCNC(=O)c1nc(-c2ccncc2)c(-c2ccc(Cl)c(O)c2)[nH]1"
  target_or_system: "Serine/threonine-protein kinase B-raf (Homo sapiens, UniProt P15056)"
  pIC50: 7.40
- mol: "Oc1cc(-c2[nH]c(-c3ccco3)nc2-c2ccncc2)ccc1Cl"
  target_or_system: "Serine/threonine-protein kinase B-raf (Homo sapiens, UniProt P15056)"
  pIC50: 7.89
- mol: "CC(C)(C)c1nc(-c2ccncc2)c(-c2ccc(Cl)c(O)c2)[nH]1"
  target_or_system: "Serine/threonine-protein kinase B-raf (Homo sapiens, UniProt P15056)"
  pIC50: 7.92
- mol: "Oc1cc(-c2nc(-c3ccccc3)[nH]c2-c2ccncc2)ccc1Cl"
  target_or_system: "Serine/threonine-protein kinase B-raf (Homo sapiens, UniProt P15056)"
  pIC50: 8.00

Dear colleague, I am looking for the recorded pIC50 of the following compound: CC(C)(CN)c1nc(-c2ccc(Cl)c(O)c2)c(-c2ccncc2)[nH]1
8.22

Dear colleague, I am looking for the recorded pIC50 of the following compound: CC(C)(CNC(=O)Nc1ccc(Cl)cc1)c1nc(-c2ccc(Cl)c(O)c2)c(-c2ccncc2)[nH]1
7.89
